B1: LINE1-full (parent)
chain: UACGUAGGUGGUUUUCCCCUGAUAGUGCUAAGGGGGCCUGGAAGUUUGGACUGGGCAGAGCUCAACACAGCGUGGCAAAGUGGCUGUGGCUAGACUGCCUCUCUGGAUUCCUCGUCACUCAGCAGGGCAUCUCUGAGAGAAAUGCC

- Variants of: B1
- Assay notes: self-cleavage, relative activity (ratio to wild type); higher = more cleavage; in vitro, sequencing; the parent is a self-cleaving ribozyme
Measurement kind: self-cleavage

| Query sequence | Measurement |
| --- | --- |
| UACGUAGGUAGUUUUCCCCUGAUAGUGCUAAGGGGGCCUGGAAGUUUGGACUGGGCAGAGCUCAACACAGCGUGGCAAAGUGGCUGUGGCUAGACUGCCUCUCCGGAUUCCUCGUCACUCAGCAGGGCAUCUCUGAGAGAAAUGCC | 0.37 |
| UACGUAGGUGGUUUCCCCCUGAUAGUGCUAAGGGGGCCUGGAAGUUUGGACUGGGCAGAGCUCAACACAGCGUGGCAAAGUGGCUGUGGCUAGACUGCCUCUCUGGAUUCCUCGUCACUCAGCAGGGCAUCUCUGAGAGAAAUGCC | 1.42 |
| UACGUAGGUGGUUUUCCCCUGAUAGUGCUAAGGGGGCCUGGAAGUUUGGACUGGGCAGAGCUCAACACGGCGUGGCAAAGUGGCUGUGGCUAGACUGCCUCUCUGGAUUCCUCGUCACUCAGCGGGGCAUCUCUGAGAGAAAUGCC | 0.32 |
| UACGUAGGUGGUUUUCCCCUGAAAGUGCUAAGGGGGCCUGGAAGUUUGGACUGGGCAGAGCUCAACACAGCGUGGCAAAGUGGCUGUGGCUAGACUGCCUCUCUGGAUUCCCCGUCACUCAGCAGGGCAUCUCUGAGAGAAAUGCC | 1.18 |
| UACGUAGGUGGUUUUCCCCUGAUAGUGCUAAGGGGGCCUGGAAGUUUGGACUGGGCAGAGCUCAACACAGCGUGGCCAAGUGGCUGUGGCUAGACUGCCUCUCUGGAUUCCUCGUCACUCAGCAGGGUAUCUCUGAGAGAAAUGCC | 1.67 |
| UACGUAGGUGGUUUUCCCCUGAUAGUGCUAAGGGGGCCUGGAAGUUUGGACUGGGCAGAGCUCAACACAGCGUGGCAAAGUGGCUGUGGCUAGACUGCCGCUCUGGAUUCCUCGUCACUCAGCAGGGCAUCUCUGAGAGAAAUGCC | 1.24 |
| UACGUAGGUGGUUUUCCCCUGAUAGUGCUAAGGGGGCCUGGAAGCUUGGACUGGGCAGAGCUCAACACAGCGUGGCAAAGCGGCUGUGGCUAGACUGCCUCUCUGGAUUCCUCGUCACUCAGCAGGGCAUCUCUGAGAGAAAUGCC | 0.94 |
| UACGUAGGUGGUUUUCCCCUGAUAGUGCUAAGGGGGCCUGGAAGUUUGGACUGGGCAGAGCUCAACACAGCGUGGCAAGGUGACUGUGGCUAGACUGCCUCUCUGGAUUCCUCGUCACUCAGCAGGGCAUCUCUGAGAGAAAUGCC | 1.03 |
| UACGUAGGUGGUUUUCCCCUGAUAGUGCUAAGGGGGCCUGGAAGUAUGGACUGGGCAGAGCUCAACACAGCGCGGCAAAGUGGCUGUGGCUAGACUGCCUCUCUGGAUUCCUCGUCACUCAGCAGGGCAUCUCUGAGAGAAAUGCC | 1.5 |
| UACGUAGGUGGUUUUCCCCUGAUAGUGCUAAGGGGGCCUGGAAGUUUGGACUGGGCAGAGCUCAACACAGCGUGGCAAAGUGGCUGUGGCUAGACUGCCUCUCUGGAUUCCACGUCACACAGCAGGGCAUCUCUGAGAGAAAUGCC | 0 |
| UACGUAGGUGGUUUUCCCCUGACAGUGCUAAGGGGGCCUGGAAGUUAGGACUGGGCAGAGCUCAACACAGCGUGGCAAAGUGGCUGUGGCUAGACUGCCUCUCUGGAUUCCUCGUCACUCAGCAGGGCAUCUCUGAGAGAAAUGCC | 1.9 |
| UACGUAGGUGGUUUUCCCCUGAUAGUGCUAAGGGGGCCUGGAAGUUUGGACUGGGCAGAGCUCAACACAGCAUGGCAAAGUGGCUGUGGCUAGACUGCCUCUCUGGACUCCUCGUCACUCAGCAGGGCAUCUCUGAGAGAAAUGCC | 1.54 |
| UACGUAGGUGGUUUUCCCCUGAUAGUGCUCAGGGGGCCUGGAAGUUUGGACUGGGCAGAGCUCAACACAGCGUGGCAAAGUGGCUGUGGCUAGACUGCCUCUCUGGAUUCCUCGUCACUCGGCAGGGCAUCUCUGAGAGAAAUGCC | 2.42 |
| UACGUAGGUGGUUUUCCCCGGAUAGUGCUAAGGGGGCCUGGAAGUUUGGACUGGGCAGAGCUCAACACAGCGUGGCAAAGUGGCUGUGGCUAGACUGCCUCUCAGGAUUCCUCGUCACUCAGCAGGGCAUCUCUGAGAGAAAUGCC | 1.29 |
| UACGUAGGUGGUUUUCCCCUGAUAGUGCUAAGGGGGCCUGGAAGUUUGGACCGGGCAGAGCUCAACACAGCGUGGCAAAGUGGCUGUGGCUAGGCUGCCUCUCUGGAUUCCUCGUCACUCAGCAGGGCAUCUCUGAGAGAAAUGCC | 0.24 |
| UACGUAGGUGGUUUUCCCCUGAUAGUGCUAAGGGGGCCUGGAAGUUUGGACUGGGCAGAGCUCAACACAGCGUGGCAAAGUGGCUGUGGCUAGACUGCCUCUCUGGAUUCCUCGUCACCCAGCGGGGCAUCUCUGAGAGAAAUGCC | 1.62 |
| UACGUAGGUGGUUUUCCCCUGAUAGUGCUAAGGGGGCCUGGAAGUUUGGACUGGGCAGAGCUCAACACAGCGUGGCAAAGUGGCUGUGGCUAGACUGCCCCUCUGGAUUCCUCGUCACUCAUCAGGGCAUCUCUGAGAGAAAUGCC | 1.76 |
| UAUGUAGGUGGUUUUCCCCUGAUAGUGCUAAGGGGGCCUGGAAGUUUGGACUGGGCAGAGCUCGACACAGCGUGGCAAAGUGGCUGUGGCUAGACUGCCUCUCUGGAUUCCUCGUCACUCAGCAGGGCAUCUCUGAGAGAAAUGCC | 0.21 |
| UACGUAGGUGGUUUUCCCCUGAUAGUGCUAAAGGGGCCUGGAAGUUUGGACUGGGCAGAGCUCAACAUAGCGUGGCAAAGUGGCUGUGGCUAGACUGCCUCUCUGGAUUCCUCGUCACUCAGCAGGGCAUCUCUGAGAGAAAUGCC | 0 |
| UACGCAGGUGGUUUUCCCCUGAUAGUGCUAAGGGGGCCUGGAAGUAUGGACUGGGCAGAGCUCAACACAGCGUGGCAAAGUGGCUGUGGCUAGACUGCCUCUCUGGAUUCCUCGUCACUCAGCAGGGCAUCUCUGAGAGAAAUGCC | 1.29 |
| UACGUAGGUGGUUUUCCCCUGAUAGCGCUAAGGGGGCCUGGAGGUUUGGACUGGGCAGAGCUCAACACAGCGUGGCAAAGUGGCUGUGGCUAGACUGCCUCUCUGGAUUCCUCGUCACUCAGCAGGGCAUCUCUGAGAGAAAUGCC | 1.43 |
| UACGUAGGUGGUUUUCCCCUGAUAGAGCUAAGGGGGCCUGGAAGUUUGGACUGGGCAGGGCUCAACACAGCGUGGCAAAGUGGCUGUGGCUAGACUGCCUCUCUGGAUUCCUCGUCACUCAGCAGGGCAUCUCUGAGAGAAAUGCC | 0.06 |
